Values compiled from patent US11434205B2.

System: rats
Assay type: in vivo, rat
Details: rats of the MAP/HR figures, 2×ED50, tail vein; same value in min
Lab note: anything with recovery time of the test animals' righting reflex at or over 2 min counts as Fulfilled; the rest go in Not fulfilled.

* C=C=CC(C)OC(=O)c1cncn1[C@H](C)c1ccccc1 (stereo partly shown) | Not fulfilled
* CC(=O)C(C)(C)OC(=O)c1c(F)ncn1[C@H](C)c1ccccc1 | Fulfilled
* C=C=CC1(OC(=O)c2c(F)ncn2[C@H](C)c2ccccc2)COC1 | Not fulfilled
* CC#CC(C)(C)OC(=O)c1c(F)ncn1[C@H](C)c1ccccc1 | Fulfilled
* C[C@H](c1ccccc1)n1cncc1C(=O)OC(C)(C)C#CC#CC(C)(C)O | Fulfilled
* CC(=O)C1(OC(=O)c2cncn2[C@H](C)c2ccccc2)COC1 | Not fulfilled
* CCC(C)(C)OC(=O)c1c(F)ncn1[C@H](C)c1ccccc1 | Fulfilled
* CSCOC(=O)c1cncn1[C@H](C)c1ccccc1 | Fulfilled
* C=C(OCC)C1(OC(=O)c2cncn2[C@H](C)c2ccccc2)COC1 [Compound D2] | Fulfilled
* CCOC(=O)c1c(C(F)(F)F)ncn1[C@H](C)c1ccccc1 | Not fulfilled
* C[C@H](c1ccccc1)n1cncc1C(=O)SC1CCC1 | Fulfilled
* COCC1(COC(=O)c2c(C(F)(F)F)ncn2[C@H](C)c2ccccc2)CCC1 | Fulfilled
* C=C=CC1(SC(=O)c2c(F)ncn2[C@H](C)c2ccccc2)CSC1 | Not fulfilled
* C[C@H](c1ccccc1)n1cnc(F)c1C(=O)OC1(C=C=S)CCCCC1 | Not fulfilled
* CC(C)c1cccc(C(C)C)c1O [propofol, reference compound] | Fulfilled
* C=C=CC(C)(C)OC(=O)c1c(F)ncn1[C@H](C)c1ccccc1 | Not fulfilled
* CCOC(=O)c1cncn1[C@H](C)c1ccccc1 [Etomidate, reference compound] | Fulfilled
* C=CC#CC(C)(C)OC(=O)c1c(F)ncn1[C@H](C)c1ccccc1 | Fulfilled
* C[C@H](c1ccccc1)n1cncc1C(=O)SCC1COC1 | Not fulfilled
* C=C=CC(C)OC(=O)c1c(F)ncn1[C@H](C)c1ccccc1 (stereo partly shown) | Fulfilled
* C#CC1(OC(=O)c2cncn2[C@H](C)c2ccccc2)COC1 | Not fulfilled
* C=CC#CC(C)OC(=O)c1c(F)ncn1[C@H](C)c1ccccc1 (stereo partly shown) | Not fulfilled
* C#CC1(OC(=O)c2c(Cl)nc(Cl)n2[C@H](C)c2ccccc2)COC1 | Not fulfilled
* C[C@H](c1ccccc1)n1cnc(F)c1C(=O)OC1(C)CCC1 | Fulfilled
* CC(=O)C1(OC(=O)c2cncn2[C@H](C)c2ccccc2)CC1 | Fulfilled
* CCC(CC)OC(=O)c1cncn1[C@H](C)c1ccccc1 | Fulfilled
* CCC(CC)OC(=O)c1c(F)ncn1[C@H](C)c1ccccc1 | Not fulfilled
* CCOC(=O)c1c(Cl)ncn1[C@H](C)c1ccccc1 | Not fulfilled
* CC(=O)CCOC(=O)c1cncn1[C@H](C)c1ccccc1 | Not fulfilled
* C#CC(C)(C)OC(=O)c1cncn1[C@H](C)c1ccccc1 | Fulfilled
* CCC#CC(C)OC(=O)c1cncn1[C@H](C)c1ccccc1 (stereo partly shown) | Fulfilled
* CC(OC(=O)c1cncn1[C@H](C)c1ccccc1)C1CC1 (stereo partly shown) | Fulfilled
* CC(=O)C(C)(C)OC(=O)c1c(C(F)(F)F)ncn1[C@H](C)c1ccccc1 | Not fulfilled
* C[C@H](c1ccccc1)n1cncc1C(=O)SCC1CC(F)(F)C1 | Fulfilled
* CC#CCOC(=O)c1c(C(F)(F)F)ncn1[C@H](C)c1ccccc1 | Fulfilled
* C[C@H](c1ccccc1)n1cnc(F)c1C(=O)OC(C)(C)C | Fulfilled
